# Tested on: giant foxtail
# protocolDescription: Test B pre/postemergence giant foxtail
# Type: in vivo, Setaria faberii
# conditions: Postemergence, Rate 125 g/ha; scale of 0 to 10 where 0 is no effect and 10 is complete control
I'd be grateful if you could share measured Plant response rating, Giant foxtail for these entries.
Kindly provide the number alone.

Give Plant response rating, Giant foxtail (giant foxtail) of the following compound: CCOP(=O)(OCC)C(C)n1c(=O)on(C(=O)N(c2ccc(F)cc2)C(C)C)c1=O (centres unmarked)
0

Give Plant response rating, Giant foxtail (giant foxtail) of the following compound: CC(C)N(C(=O)n1oc(=O)n(CC(=O)C(F)(F)F)c1=O)c1ccc(F)cc1F
0

Give Plant response rating, Giant foxtail (giant foxtail) of the following compound: CCC(C)n1c(=O)on(C(=O)N(c2ccccc2)C(C)C)c1=O (centres unmarked)
9

Give Plant response rating, Giant foxtail (giant foxtail) of the following compound: COC(C)n1c(=O)on(C(=O)N(c2ccc(Cl)cc2)C(C)C)c1=O (centres unmarked)
0

Give Plant response rating, Giant foxtail (giant foxtail) of the following compound: CC(C)N(C(=O)n1oc(=O)n(CC(=O)N(C)C)c1=O)c1ccc(F)cc1
2

====

I'd be grateful if you could share measured Plant response rating, Corn for these entries.
# Test system: corn
# protocolDescription: Test B pre/postemergence corn
# Type: in vivo, Zea mays
# conditions: Preemergence, Rate 125 g/ha; scale of 0 to 10 where 0 is no effect and 10 is complete control
# Description: […] At the same time, these crop and weed species were also treated with postemergence applications of test chemicals formulated in the same manner. […] Treated plants and controls were maintained in a greenhouse for twelve to sixteen days, after which all species were compared to controls and visually evaluated. […]
Kindly provide the number alone.

Give Plant response rating, Corn (corn) of the following molecule: CC(C)N(C(=O)n1oc(=O)n(CCC(=O)N(C)C)c1=O)c1ccc(F)cc1F
0

Give Plant response rating, Corn (corn) of the following molecule: CC(=O)C(C)n1c(=O)on(C(=O)N(c2ccc(F)cc2)C(C)C)c1=O (stereo not shown)
0

Give Plant response rating, Corn (corn) of the following molecule: C=CC(CC)n1c(=O)on(C(=O)N(c2ccccc2)C(C)C)c1=O (stereo not shown)
2

Give Plant response rating, Corn (corn) of the following molecule: CC(C)N(C(=O)n1oc(=O)n(CCF)c1=O)c1ccc(F)cc1F
4

Give Plant response rating, Corn (corn) of the following molecule: COC1CCC(Cn2c(=O)on(C(=O)N(c3ccc(Cl)cc3)C(C)C)c2=O)=NO1 (stereo not shown)
0

Give Plant response rating, Corn (corn) of the following molecule: C=C(Cn1c(=O)on(C(=O)N(c2ccc(F)cc2)C(C)C)c1=O)C(=O)OC
0

Give Plant response rating, Corn (corn) of the following molecule: CC(C)N(C(=O)n1oc(=O)n(CC(=O)N(C)C)c1=O)c1ccc(F)cc1F
0

====

I'd be grateful if you could share measured Giant foxtail plant response rating for these entries.
# System: giant foxtail
# protocolDescription: Test B pre/postemergence giant foxtail
# Type: in vivo, Setaria faberii
# conditions: Postemergence, Rate 250 g/ha; scale 0 to 10
# Method: […] At the same time, these crop and weed species were also treated with postemergence applications of test chemicals formulated in the same manner. […] Treated plants and controls were maintained in a greenhouse for twelve to sixteen days, after which all species were compared to controls and visually evaluated. […]

# input compound: CC(C)N(C(=O)n1oc(=O)n(CC#N)c1=O)c1ccccc1 [Compound 434] ; wanted: its Giant foxtail plant response rating
1

# input compound: CC(C)N(C(=O)n1oc(=O)n(C(CF)CF)c1=O)c1ccc(Cl)cc1 [Compound 468] ; wanted: its Giant foxtail plant response rating
9

# input compound: COC(C)n1c(=O)on(C(=O)N(c2ccccc2)C(C)C)c1=O (stereo not shown) [Compound 441] ; wanted: its Giant foxtail plant response rating
0

# input compound: CC(C)N(C(=O)n1oc(=O)n(C(C)C(=O)N(C)C)c1=O)c1ccc(F)cc1 (stereo not shown) [Compound 478] ; wanted: its Giant foxtail plant response rating
8
